# Tested on: Escherichia coli TOP10
# TEST: shrunken log2 fold change of peptide-encoding DNA abundance (4.5 h post-induction vs induction); higher = less antimicrobial activity (less host growth inhibition)
# TEST CONDITIONS: time post-induction: 4.5 h; library: site-saturation at positions 5, 18, 19, 20
READOUT LABEL: shrunken log2 fold change
Give a plain numeric answer without units written out.

// known answers, use as guide
RRIRVRPPRLPRPRPRPISTPRP; -0.112
RRIRSRPPRLPRPRPRPHRYPRP; -0.606
RRIRCRPPRLPRPRPRPWERPRP; -0.118

Q: Request: shrunken log2 fold change, test system Escherichia coli TOP10, entry `RRIRGRPPRLPRPRPRPETLPRP`
Ans: 1.37

Q: Also need `RRIRQRPPRLPRPRPRPSPPPRP` , thanks.
Ans: 0.169

Q: Queued: `RRIRKRPPRLPRPRPRPVFTPRP`
Ans: -0.0937

Q: Also `RRIRPRPPRLPRPRPRPVEAPRP` , if possible.
Ans: 0.481

---

# Test system: Escherichia coli TOP10
# TEST: shrunken log2 fold change of peptide-encoding DNA abundance (4.5 h post-induction vs induction); higher = less antimicrobial activity (less host growth inhibition)
# TEST CONDITIONS: time post-induction: 4.5 h; library: site-saturation at positions 5, 18, 19, 20
READOUT LABEL: shrunken log2 fold change
Please reply with the value in numeric form only.

RRIRQRPPRLPRPRPRPQVGPRP; 0.331
RRIRKRPPRLPRPRPRPVIEPRP; 0.15
RRIRKRPPRLPRPRPRPHSRPRP; 0.147
RRIRVRPPRLPRPRPRPGLGPRP; 0.134
RRIRLRPPRLPRPRPRPNEEPRP; 0.00826

Q: Could you share which shrunken log2 fold change value was measured for `RRIRPRPPRLPRPRPRPVNYPRP` ?
Ans: -0.335

Q: Also need `RRIRSRPPRLPRPRPRPPRYPRP` , thanks.
Ans: -0.0232

Q: Let us now turn to `RRIRHRPPRLPRPRPRPSEIPRP`
Ans: -0.0493

---

# Tested on: Escherichia coli TOP10
# TEST: shrunken log2 fold change of peptide-encoding DNA abundance (4.5 h post-induction vs induction); higher = less antimicrobial activity (less host growth inhibition)
# TEST CONDITIONS: time post-induction: 4.5 h; library: site-saturation at positions 5, 18, 19, 20
// reported shrunken log2 fold change per item

Below, 5 sequences whose answers are already recorded.
RRIRLRPPRLPRPRPRPHMFPRP; -0.356
RRIRFRPPRLPRPRPRPYMQPRP; -0.68
RRIRRRPPRLPRPRPRPIDVPRP; -0.00284
RRIRCRPPRLPRPRPRPEPHPRP; 0.489
RRIRHRPPRLPRPRPRPRTTPRP; 0.136

Q: Reported shrunken log2 fold change, sequence `RRIRTRPPRLPRPRPRPPPNPRP` : ____
Ans: 1.22

Q: Further, for `RRIRQRPPRLPRPRPRPQCFPRP` ?
Ans: -1.14

Q: And for `RRIRPRPPRLPRPRPRPYFKPRP` ?
Ans: -0.796

Q: Then what about the sequence `RRIRLRPPRLPRPRPRPFYCPRP` ?
Ans: -0.472

---

# Tested on: Escherichia coli TOP10;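 note: peptides expressed intracellularly from a pBAD plasmid library in pooled LB shake-flask culture, induced with 0.3% L-arabinose, DNA abundance read by NGS, three biological replicates, DESeq2 with apeglm shrinkage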
# TEST: shrunken log2 fold change of peptide-encoding DNA abundance (4.5 h post-induction vs induction); higher = less antimicrobial activity (less host growth inhibition)
# TEST CONDITIONS: time post-induction: 4.5 h; library: site-saturation at positions 5, 18, 19, 20
READOUT LABEL: shrunken log2 fold change
Keep it simple and answer with nothing but the number.

# example entries with known answers
RRIRTRPPRLPRPRPRPVKDPRP; -0.0913
RRIRSRPPRLPRPRPRPEKCPRP; -0.0875

Q: Consider the sequence shown here: `RRIRCRPPRLPRPRPRPKVRPRP` What is its recorded shrunken log2 fold change?
Ans: 0.195
